subject of test: IKKε (Homo sapiens)
Construct: purchased Invitrogen PR8031B
Sequence (Q14164 whole entry): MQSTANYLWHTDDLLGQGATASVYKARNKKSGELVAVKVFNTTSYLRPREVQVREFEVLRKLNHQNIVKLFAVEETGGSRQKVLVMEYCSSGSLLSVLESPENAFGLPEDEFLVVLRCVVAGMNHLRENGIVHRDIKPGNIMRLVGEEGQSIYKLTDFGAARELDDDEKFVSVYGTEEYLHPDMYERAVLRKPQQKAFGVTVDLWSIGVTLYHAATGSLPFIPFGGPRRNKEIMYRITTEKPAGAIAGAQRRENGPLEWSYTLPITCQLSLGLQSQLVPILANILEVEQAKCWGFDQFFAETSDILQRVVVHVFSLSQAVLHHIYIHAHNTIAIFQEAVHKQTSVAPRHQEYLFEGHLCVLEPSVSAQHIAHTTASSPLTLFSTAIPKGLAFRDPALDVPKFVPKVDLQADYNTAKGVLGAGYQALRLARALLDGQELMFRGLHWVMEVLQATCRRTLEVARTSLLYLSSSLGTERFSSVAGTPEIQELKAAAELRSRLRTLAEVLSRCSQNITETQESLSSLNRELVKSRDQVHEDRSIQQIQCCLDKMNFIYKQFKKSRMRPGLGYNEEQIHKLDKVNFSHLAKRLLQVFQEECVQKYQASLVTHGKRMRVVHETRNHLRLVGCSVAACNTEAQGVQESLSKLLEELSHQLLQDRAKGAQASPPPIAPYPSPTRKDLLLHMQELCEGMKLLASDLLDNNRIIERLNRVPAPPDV
experiment summary: IKKε inhibition, ADP-Glo Kinase Assay
Type: biochemical
test parameters: luminometer
readout label: IC50 (µM)

1: CN1CCN(c2ccc(C(=O)Nc3n[nH]c4ccc(C(=O)NCc5ccc(C(F)(F)F)cc5)cc34)cc2)CC1
2: O=C(Nc1n[nH]c2ccc(C(=O)NC3(c4ccccn4)CC3)cc12)c1ccc(F)cc1
3: O=C(NCc1ccccc1)c1ccc2[nH]nc(NC(=O)c3ccc(N4CCOCC4)cc3)c2c1
4: Cc1noc(CNC(=O)c2ccc3[nH]nc(NC(=O)c4ccc(N5CCOCC5)cc4)c3c2)n1 [Example 100, 2,2,2-trifluoroacetate]
Exam item: # ascending order, key=IC50 // rank by listing labels in the order requested
Marked response: 3, 4, 1, 2
(3: 0.033 µM, 4: 0.95 µM, 1: 3.19 µM, 2: 5.25 µM)

* * *

subject of test: TNIK (Homo sapiens)
Construct: purchased Promega V4158
Sequence (Q9UKE5 1-367 limits assumed): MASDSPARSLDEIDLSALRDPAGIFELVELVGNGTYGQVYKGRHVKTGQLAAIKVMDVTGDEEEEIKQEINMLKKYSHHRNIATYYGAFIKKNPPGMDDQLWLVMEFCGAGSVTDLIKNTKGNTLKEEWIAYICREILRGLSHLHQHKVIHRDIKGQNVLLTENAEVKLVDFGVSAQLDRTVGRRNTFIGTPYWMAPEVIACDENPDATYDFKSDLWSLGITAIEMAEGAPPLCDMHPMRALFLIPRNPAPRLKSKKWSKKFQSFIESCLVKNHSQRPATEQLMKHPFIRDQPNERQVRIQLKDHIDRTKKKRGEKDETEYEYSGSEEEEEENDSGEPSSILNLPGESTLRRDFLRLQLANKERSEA
experiment summary: TNIK inhibition, ADP-Glo Kinase Assay
Type: biochemical
test parameters: luminometer
readout label: IC50 (µM)

Solved entries:
1. Cc1cnc(-c2cc3[nH]nc(NC(=O)c4ccc(NCCN5CCCC5)cc4)c3s2)o1 [Example 226]; 0.15
2. CCNC(=O)c1cc2[nH]nc(-c3ccc(OC)cc3)c2s1 [Example 232]; 1.95
3. COC(=O)c1cc2[nH]nc(-c3ccc(F)cc3)c2s1 [Example 239]; 0.86

a: COC(=O)c1cc2[nH]nc(-c3ccc(OCCN4CCOCC4)cc3)c2s1 [Example 249]
b: O=C(c1cc2[nH]nc(-c3ccc(N4CCOCC4)cc3)c2s1)N1CCCC1 [Example 248]
c: Cc1cnc(-c2cc3[nH]nc(NC(=O)c4ccc(N(C)C)cc4)c3s2)o1 [Example 223]
Exam item: Order the records so the highest IC50 appears first and the lowest last. // rank by listing labels in the order requested
Marked response: b, a, c
(b: 8.09 µM, a: 0.47 µM, c: 0.11 µM)

I: COC(=O)c1cc2[nH]nc(-c3ccc(OC)cc3)c2s1 [Example 231]
II: Cc1cnc(-c2cc3[nH]nc(NC(=O)c4ccc(NCCN5CCOCC5)cc4)c3s2)o1 [Example 227]
Exam item: Which record would sort first by descending IC50, I or II ? // output: label of the selected item
Marked response: I
(I: 0.54 µM, II: 0.085 µM)

A: Cc1cnc(-c2cc3[nH]nc(NC(=O)c4ccc(F)cc4)c3s2)o1 [Example 221]
B: Cc1cnc(-c2cc3[nH]nc(NC(=O)c4ccccc4)c3s2)o1 [Example 220]
Exam item: Which record would sort first by descending IC50, A or B ? // output: label of the selected item
Marked response: A

a: CCc1cnc(-c2cc3[nH]nc(-c4ccc(N5CCOCC5)cc4)c3s2)o1 [Example 244]
b: Cc1cnc(-c2cc3[nH]nc(NC(=O)c4ccc(NCCO)cc4)c3s2)o1 [Example 228]
Exam item: Which record would sort first by descending IC50, a or b ? // output: label of the selected item
Marked response: a

P: CCNC(=O)c1cc2[nH]nc(-c3ccc(N(C)C)cc3)c2s1 [Example 237]
Q: Cc1cnc(-c2cc3[nH]nc(NC(=O)c4ccc(N5CCOCC5)cc4)c3s2)s1 [Example 219]
R: Cc1cnc(-c2cc3[nH]nc(NC(=O)c4ccc(NCCN5CCCCC5)cc4)c3s2)o1 [Example 224]
S: Cc1cnc(-c2cc3[nH]nc(NC(=O)c4ccc(NCCN5CCCCC5)cc4)c3s2)s1 [Example 253]
Exam item: Order the records, beginning with the lowest IC50 and ending with the highest. // rank by listing labels in the order requested
Marked response: R, Q, S, P
(R: 0.085 µM, Q: 0.13 µM, S: 0.28 µM, P: 1.79 µM)

1: Cc1cnc(-c2cc3[nH]nc(-c4ccc(N5CCOCC5)cc4)c3s2)o1 [Example 243]
2: COC(=O)c1cc2[nH]nc(-c3ccc(N4CCOCC4)cc3)c2s1 [Example 254]
Exam item: Of the pair 1 and 2 , name the member with the lesser recorded IC50. // output: label of the selected item
Marked response: 1
